# target-or-test-system: human PAC1 receptor (PAC1-CHO clonal cell line) (human), P41586
# Sequence (P41586 21-468): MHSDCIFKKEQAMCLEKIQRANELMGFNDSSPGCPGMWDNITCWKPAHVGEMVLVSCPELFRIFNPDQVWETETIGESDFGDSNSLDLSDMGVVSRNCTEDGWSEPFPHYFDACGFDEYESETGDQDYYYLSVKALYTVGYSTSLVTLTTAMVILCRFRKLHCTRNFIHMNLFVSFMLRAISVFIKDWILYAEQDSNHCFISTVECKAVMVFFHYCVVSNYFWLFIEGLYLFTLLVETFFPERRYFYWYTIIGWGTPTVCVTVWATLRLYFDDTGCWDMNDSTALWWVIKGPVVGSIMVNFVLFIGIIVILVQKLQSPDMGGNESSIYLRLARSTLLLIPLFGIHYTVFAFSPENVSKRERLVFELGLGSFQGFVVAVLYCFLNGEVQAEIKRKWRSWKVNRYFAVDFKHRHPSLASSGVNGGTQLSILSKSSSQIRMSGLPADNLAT
# procedure-details: cell-based or functional assay
Where no end group is shown, it is not given here.
# reported EC50 (agonist); entries follow
Write it as a number; the unit nM goes unstated.

{"binder": "HSDGIFTDSYSRYRKQLAVKKYLAAVLS(melibiose)-NH2 […-Ser(Mel)]", "EC50 (agonist) [nM]": 0.57}
{"binder": "HSDGIFTDSYSRYRKQXAVKKYLAAVLS (here or on the partner: D-Serine at 2 (s); L-Nor-Leucine at 17 (Ñ, written X in letters); Ser 28 = L-Ser(β-D-Glc))", "EC50 (agonist) [nM]": 25.5}

Any idea what EC50 (agonist) was measured for HSDGIFTDSYSRYRKQXAVKKYLAAVS (here or on the partner: D-Serine at 2 (s); L-Nor-Leucine at 17 (Ñ, written X in letters); Ser 27 = L-Ser(β-D-Glc)) ?
54.5
